Numbers sourced from patent US20190315854A1.

Biological target: T1, sIL-6R (soluble IL-6 receptor; SBH Sciences) (human, UniProt P08887 20-365)
T1 construct: also called human IL-6R
T1 sequence: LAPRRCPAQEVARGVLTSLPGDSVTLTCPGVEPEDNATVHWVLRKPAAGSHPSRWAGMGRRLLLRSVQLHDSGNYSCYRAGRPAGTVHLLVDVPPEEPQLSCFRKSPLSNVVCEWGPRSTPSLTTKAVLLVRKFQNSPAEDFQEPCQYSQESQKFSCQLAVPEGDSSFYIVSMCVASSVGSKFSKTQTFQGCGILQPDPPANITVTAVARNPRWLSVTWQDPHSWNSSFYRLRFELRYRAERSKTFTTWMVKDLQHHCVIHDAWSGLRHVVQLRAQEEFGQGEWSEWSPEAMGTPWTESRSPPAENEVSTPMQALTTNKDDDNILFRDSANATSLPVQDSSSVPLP
Assay: SPR (BIAcore 3000), antibody on chip, sIL-6R analyte, pH 6.0
Here the recorded kon is given for each entry.
Provide a numeric answer, followed by its unit.

// below: answered binders
209# (antibody, human IgG1, kappa, V domains shown, also called Sample # 209) VH: QVQLQESGPGLVRPSQTLSLTCTVSGYSITSDHAWSWVRQPPGRGLEWIGFISYSGMTTYNPSLKSRVTMLRDTSKNQFSLRLSSVTAADTAVYYCARSLARITAIDFWGQGSLVTVSS VL: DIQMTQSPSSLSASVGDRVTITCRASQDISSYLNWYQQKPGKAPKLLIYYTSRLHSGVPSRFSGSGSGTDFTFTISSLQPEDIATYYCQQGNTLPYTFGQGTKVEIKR; 683000 M⁻¹ s⁻¹
231# (antibody, human IgG1, kappa, V domains shown, also called Sample # 231) VH: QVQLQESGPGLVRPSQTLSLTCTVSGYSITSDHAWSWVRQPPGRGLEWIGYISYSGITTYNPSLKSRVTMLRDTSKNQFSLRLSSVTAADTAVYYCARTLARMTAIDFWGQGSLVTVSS VL: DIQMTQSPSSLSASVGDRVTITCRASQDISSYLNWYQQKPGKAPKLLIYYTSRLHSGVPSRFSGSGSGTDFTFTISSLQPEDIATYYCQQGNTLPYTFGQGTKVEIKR; 291000 M⁻¹ s⁻¹
Tocilizumab (antibody, human IgG1, kappa, V domains shown, also called 25; 25(control)) VH: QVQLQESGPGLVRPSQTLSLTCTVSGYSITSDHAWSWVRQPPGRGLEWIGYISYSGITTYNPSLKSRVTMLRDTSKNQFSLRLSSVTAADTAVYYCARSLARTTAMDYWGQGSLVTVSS VL: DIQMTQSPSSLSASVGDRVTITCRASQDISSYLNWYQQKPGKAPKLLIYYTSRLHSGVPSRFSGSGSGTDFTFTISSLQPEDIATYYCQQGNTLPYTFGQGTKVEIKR; 316000 M⁻¹ s⁻¹

Consider now this further binder.
The reported value for 237# (antibody, human IgG1, kappa, V domains shown, also called Sample # 237) VH: QVQLQESGPGLVRPSQTLSLTCTVSGYSITSDHAWSWVRQPPGRGLEWIGYISYSGMTTYNPSLKSRVTMLRDTSKNQFSLRLSSVTAADTAVYYCARCLARTTAMDYWGQGSLVTVSS VL: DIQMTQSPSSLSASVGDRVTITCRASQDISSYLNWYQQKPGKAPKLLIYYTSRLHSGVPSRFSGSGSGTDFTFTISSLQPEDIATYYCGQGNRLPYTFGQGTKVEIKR in terms of kon is 292000 M⁻¹ s⁻¹
